Target: Cbl (aa49-434) (Homo sapiens, UniProt P22681)
Construct: Cbl (aa49-434, in-house); made in house
Sequence (P22681 49-434): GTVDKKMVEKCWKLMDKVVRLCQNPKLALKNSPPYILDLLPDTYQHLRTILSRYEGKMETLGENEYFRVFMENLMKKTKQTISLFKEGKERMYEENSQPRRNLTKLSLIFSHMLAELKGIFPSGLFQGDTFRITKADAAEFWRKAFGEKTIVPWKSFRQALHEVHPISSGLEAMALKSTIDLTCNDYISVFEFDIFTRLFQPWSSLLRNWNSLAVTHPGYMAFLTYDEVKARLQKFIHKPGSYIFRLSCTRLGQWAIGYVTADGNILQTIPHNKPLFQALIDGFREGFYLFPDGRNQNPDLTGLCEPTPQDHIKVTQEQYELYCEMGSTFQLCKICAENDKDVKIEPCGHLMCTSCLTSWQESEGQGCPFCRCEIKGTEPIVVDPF
Test: Co-expressed Cbl with BirA biochemical assay (CBL/E2-Ub binding, HTRF)
Conditions: 0.6 nM Cbl co-expressed with BirA, read-out: co-express CBL/E2-Ub-binding assay IC50
pIC50: −log10 of the molar value.
pIC50 values by entry

| COMPOUND | pIC50 |
| --- | --- |
| Cn1cnnc1[C@]1(c2cncc(NC(=O)c3cc(CNCC4CCC4)c4[nH]cc(F)c4n3)c2)C[C@H](C)C1 [Compound B46] | 8.57 |
| Cn1cnnc1[C@]1(c2cncc(NC(=O)c3cc(CNC4(C)CC4)c4[nH]ccc4n3)c2)C[C@H](C)C1 [Compound B44] | 8.05 |
| C[C@H](NCc1cc(C(=O)Nc2cccc([C@]3(c4nncn4C)C[C@@H](C)C3)c2)c2ncc(F)n2c1)C1CC1 [Compound A19] | 8.09 |
| Cn1cnnc1[C@]1(c2cccc(NC(=O)c3cc(CNC4(C)CCC4)c4ccsc4n3)c2)C[C@H](CC#N)C1 [Compound B39] | 8.06 |
| Cc1cnc2c(C(=O)Nc3cccc([C@]4(c5nncn5C)C[C@@H](C)C4)c3)cc(CN[C@@H](C)C3CC3)cn12 [Compound A59] | 8.28 |
| Cn1cnnc1[C@]1(c2cccc(NC(=O)c3cc(CN[C@H]4C[C@@H](C)C4)c4[nH]ccc4n3)c2)C[C@H](C)C1 [Compound B33] | 8.33 |
| Cn1cnnc1[C@]1(c2cccc(NC(=O)c3cc(CNCC4CCC4)c4c(n3)C(C)(C)CN4)c2)C[C@H](C)C1 [Compound C49] | 8.23 |
| CC(C)CNCc1cc(C(=O)Nc2cncc([C@]3(c4nncn4C)C[C@@H](C)C3)c2)c2nccn2c1 [Compound A78] | 8.64 |
| C[C@H](NCc1cc(C(=O)Nc2cccc([C@]3(c4nncn4C)C[C@@H](C)C3)c2)c2ncc(F)n2c1)C1CCC1 [Compound A65] | 8.70 |
| C[C@H](NCc1cc(C(=O)Nc2cccc([C@]3(c4nncn4C)C[C@@H](CC#N)C3)c2)nc2c1OCC2(C)C)C1CCC1 [Compound C28] | 8.48 |
| C[C@H](NCc1cc(C(=O)Nc2cccc([C@]3(c4nncn4C)C[C@@H](CC#N)C3)c2)nc2cc[nH]c12)C1CC1 [Compound B28] | 8.66 |
| Cc1cnc2c(C(=O)Nc3cncc([C@]4(c5nncn5C)C[C@@H](C)C4)c3)cc(CNC3(C)CCC3)cn12 [Compound A80] | 7.89 |
| C[C@H]1CCCN(Cc2cc(C(=O)Nc3cccc([C@]4(c5nncn5C)C[C@@H](C)C4)c3)c3nc(F)cn3c2)C1 [Compound A8] | 7.73 |
| Cn1cnnc1[C@]1(c2cncc(NC(=O)c3cc(CNC4(C)CC4)c4ccsc4n3)c2)C[C@H](C)C1 [Compound B51] | 7.89 |

Just for reference, patent US20250163047A1 is where these values come from.
